target: T1, biotinylated CD3 epsilon:delta heterodimer protein (Amsbio AMS.CDD-H52WO) (Homo sapiens (Human), UniProt P07766 23-126; P04234 22-105); assay: BLI (Octet), CD3 on SA sensor, Fab analyte;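 further: fab analyte at several concentrations up to 300 nM, association 100 s then 300 s dissociation in buffer, biosensors blocked with biocytin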
T1 construct: also called CD3 heterodimer
pKd: −log10 of the molar value.
Measure: pKd

Binder	Numeric readout
huSP34.34.10 Fab-HF (Fab, V domains shown, also called HC34+LC10) VH: EVQLVESGGGLVQPGGSLRLSCAASGFTFNTYAMNWVRQAPGKGLEWVGRIRSKYNNYATYYAASVKGRFTISRDDSKNSLYLQMNSLKTEDTAMYYCVRHGNFGHSYVSWFAYWGQGTLVTVSS VL: QAVVTQPPSLTVSPGGTVTLTCGSSTGAVTTGHYANWVQQKPGQAPRGLIGGTNKRAPGVPARFSGSLSGGKAALTISGAQPEDEAEYYCALWYSNRWVFGGGTKLTVL	8.40
huSP34.35.15 Fab-HF (Fab, V domains shown, also called HC35+LC15) VH: EVQLVESGGGLVQPGGSLRLSCAASGFTFNDYAMNWVRQAPGKGLEWVGRTRSKYNNYATYYAASVKGRFTISRDDSKNSLYLQMNSLKTEDTAMYYCVRHGNFGHSYVSWFAYWGQGTLVTVSS VL: QAVVTQPPSLTVSPGGTVTLTCGSSTGAVTTGHYANWVQQKPGQAPRGLIGGTNKRAPGVPARFSGSLSGGKAALTISGAQPEDEAEYYCALWYSARWVFGGGTKLTVL	6.52
huSP34.34.15 Fab-HF (Fab, V domains shown, also called HC34+LC15) VH: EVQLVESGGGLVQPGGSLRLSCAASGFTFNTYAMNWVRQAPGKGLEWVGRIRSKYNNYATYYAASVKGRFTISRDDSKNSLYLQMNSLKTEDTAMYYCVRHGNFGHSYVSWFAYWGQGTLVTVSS VL: QAVVTQPPSLTVSPGGTVTLTCGSSTGAVTTGHYANWVQQKPGQAPRGLIGGTNKRAPGVPARFSGSLSGGKAALTISGAQPEDEAEYYCALWYSARWVFGGGTKLTVL	7.83
huSP34.34.11 Fab-HF (Fab, V domains shown, also called HC34+LC11) VH: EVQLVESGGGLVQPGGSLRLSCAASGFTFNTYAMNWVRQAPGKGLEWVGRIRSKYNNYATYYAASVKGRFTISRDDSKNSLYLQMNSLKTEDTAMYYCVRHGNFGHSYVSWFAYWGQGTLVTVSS VL: QAVVTQEPSLTVSPGGTVTLTCGSSTGAVTTGHYANWVQQKPGQAPRGLIGGTNKRAPGVPARFSGSLLGGKAALTLSGAQPEDEAEYYCALWYSNLWVFGGGTKLTVL	7.97

These measurements were taken from patent US20230056252A1.
